Hi there, I'd appreciate the recorded Kb for every entry that follows.
- target_desc: ETA receptors (Rattus norvegicus, UniProt P26684)
- Sequence (P26684 21-426): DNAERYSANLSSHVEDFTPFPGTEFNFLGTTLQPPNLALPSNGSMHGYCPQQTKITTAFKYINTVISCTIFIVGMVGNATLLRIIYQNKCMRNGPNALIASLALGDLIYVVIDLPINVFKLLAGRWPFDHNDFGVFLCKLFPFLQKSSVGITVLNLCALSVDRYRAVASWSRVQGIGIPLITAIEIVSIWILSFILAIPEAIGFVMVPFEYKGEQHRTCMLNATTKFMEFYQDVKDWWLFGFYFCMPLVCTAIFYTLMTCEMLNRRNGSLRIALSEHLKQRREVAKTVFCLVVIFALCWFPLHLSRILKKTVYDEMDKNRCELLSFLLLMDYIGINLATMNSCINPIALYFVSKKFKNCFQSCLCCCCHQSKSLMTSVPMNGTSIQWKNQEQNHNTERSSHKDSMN
- experiment: Inhibition of endothelin-1-induced contractions on isolated rat aortic rings
Expressed in nM, but write only the number.

Query string: So what's the measured Kb for this one? `COc1ccccc1Oc1c(NS(=O)(=O)c2ccc(C(C)C)cn2)nc(-c2ccncc2)nc1OCCNS(=O)(=O)c1ccc(C)cc1`
Result string: 851

Query string: So what's the measured Kb for this one? `CCS(=O)(=O)NCCOc1nc(-c2ncccn2)nc(NS(=O)(=O)c2ccc(C(C)C)cn2)c1Oc1ccccc1OC`
Result string: 891

Query string: So what's the measured Kb for this one? `COc1ccccc1Oc1c(NS(=O)(=O)c2ccc(C(C)C)cn2)nc(-c2ccncc2)nc1OCCNS(=O)(=O)C(C)C`
Result string: 186

----------
- target_desc: human recombinant ETA receptors (Homo sapiens)
- Construct: expressed in transfected cells; host or cells: CHO cells (microsomal membranes)
- experiment: Inhibition of endothelin binding to membranes from CHO cells carrying human ET receptors (ETA)
readout_kind: log10 of IC50 (log10 of the value in nM)
Please interpret these as log10 of IC50 where IC50 is in nM.

Query string: So what's the measured log10 of IC50 for this one? COc1ccccc1Oc1c(NS(=O)(=O)c2ccc(C(C)C)cn2)nc(-c2cc(OC)c(OC)c(OC)c2)nc1OCCNS(=O)(=O)C(C)C [Example 18]
Result string: 2.32

Query string: So what's the measured log10 of IC50 for this one? CCS(=O)(=O)NCCOc1nc(C2CC2)nc(NS(=O)(=O)c2ccc(C(C)C)cn2)c1Oc1ccccc1OC [Example 43]
Result string: 1.88

Query string: So what's the measured log10 of IC50 for this one? COc1ccccc1Oc1c(NS(=O)(=O)c2ccc(C(C)C)cn2)nc(N2CCOCC2)nc1OCCNS(C)(=O)=O [Example 45]
Result string: 2.40

Query string: So what's the measured log10 of IC50 for this one? CCCS(=O)(=O)NCCOc1ncnc(NS(=O)(=O)c2ccc(C(C)(C)C)cc2)c1Oc1ccccc1OC [Example 30]
Result string: 2.68

Query string: So what's the measured log10 of IC50 for this one? CCS(=O)(=O)NCCOc1nc(SC)nc(NS(=O)(=O)c2ccc(C(C)(C)C)cc2)c1Oc1ccccc1OC [Example 36f]
Result string: 2.68

Query string: So what's the measured log10 of IC50 for this one? COc1ccccc1Oc1c(NS(=O)(=O)c2ccc(C(C)(C)C)cc2)ncnc1OCCNS(=O)(=O)c1ccc(Br)cc1 [Example 27]
Result string: 3.56

Query string: So what's the measured log10 of IC50 for this one? COc1ccccc1Oc1c(NS(=O)(=O)c2ccc(C(C)(C)C)cc2)nc(-c2ccncc2)nc1OCCNS(=O)(=O)c1cccs1 [Example 51]
Result string: 3.54

----------
Hi there, I'd appreciate the recorded IC50 for every entry that follows.
- target_desc: human recombinant ETA receptors (Homo sapiens, UniProt P25101)
- Construct: expressed in transfected cells; host or cells: CHO cells (microsomal membranes)
- Sequence (P25101 21-427): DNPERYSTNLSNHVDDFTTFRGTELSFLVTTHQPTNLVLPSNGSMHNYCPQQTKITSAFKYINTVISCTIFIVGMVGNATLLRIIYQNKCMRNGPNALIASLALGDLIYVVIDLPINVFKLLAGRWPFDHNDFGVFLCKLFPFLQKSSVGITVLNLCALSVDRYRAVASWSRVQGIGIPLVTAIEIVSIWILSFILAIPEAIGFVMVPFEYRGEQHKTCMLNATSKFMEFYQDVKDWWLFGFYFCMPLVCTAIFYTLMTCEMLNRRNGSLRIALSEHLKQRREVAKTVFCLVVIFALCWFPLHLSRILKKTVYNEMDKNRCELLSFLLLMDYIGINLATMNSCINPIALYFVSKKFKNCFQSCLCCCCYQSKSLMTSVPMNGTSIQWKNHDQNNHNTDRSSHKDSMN
- experiment: Inhibition of endothelin binding to membranes from CHO cells carrying human ET receptors (ETA)
Expressed in µM, but write only the number.

Query string: So what's the measured IC50 for this one? `COc1ccccc1Oc1c(NS(=O)(=O)c2ccc(C(C)C)cn2)nc(N2CCOCC2)nc1OCCNS(=O)(=O)c1ccc(C)cc1`
Result string: 1.44

Query string: So what's the measured IC50 for this one? `CCCCS(=O)(=O)NCCOc1nc(C(F)(F)F)nc(NS(=O)(=O)c2ccc(C(C)C)cn2)c1Oc1ccccc1OC`
Result string: 1.03

Query string: So what's the measured IC50 for this one? `COc1ccccc1Oc1c(NS(=O)(=O)c2ccc(C(C)C)cn2)nc(C)nc1OCCNS(=O)(=O)c1ccc(C)cc1`
Result string: 0.881

----------
- target_desc: human recombinant ETB receptors (Homo sapiens, UniProt P24530)
- Construct: expressed in transfected cells; host or cells: CHO cells (microsomal membranes)
- Sequence (P24530 27-442): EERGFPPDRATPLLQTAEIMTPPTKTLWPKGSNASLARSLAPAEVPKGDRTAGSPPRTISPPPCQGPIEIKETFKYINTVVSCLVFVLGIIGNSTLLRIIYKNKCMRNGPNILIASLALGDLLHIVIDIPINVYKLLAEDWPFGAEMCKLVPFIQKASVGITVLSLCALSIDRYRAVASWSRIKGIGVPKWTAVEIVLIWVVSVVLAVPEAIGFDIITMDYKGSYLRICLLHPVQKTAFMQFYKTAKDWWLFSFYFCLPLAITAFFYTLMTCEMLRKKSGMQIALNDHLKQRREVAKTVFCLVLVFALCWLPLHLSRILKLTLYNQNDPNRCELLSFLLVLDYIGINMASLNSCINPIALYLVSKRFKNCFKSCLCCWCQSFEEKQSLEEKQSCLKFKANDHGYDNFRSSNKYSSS
- experiment: Inhibition of endothelin binding to membranes from CHO cells carrying human ET receptors (ETB)
readout_kind: IC50 (nM)
Expressed in nM, but write only the number.

Query string: Provide the documented IC50 with human recombinant ETB receptors (Homo sapiens, UniProt P24530) as the system for `COc1ccccc1Oc1c(NS(=O)(=O)c2ccc(C(C)(C)C)cc2)nc(C2CC2)nc1OCCNS(=O)(=O)C(C)C`
Result string: 87

Query string: Provide the documented IC50 with human recombinant ETB receptors (Homo sapiens, UniProt P24530) as the system for `COc1ccccc1Oc1c(NS(=O)(=O)c2ccc(C(C)C)cn2)nc(-c2ccncc2)nc1OCCNS(=O)(=O)C(F)(F)F`
Result string: 934

Query string: Provide the documented IC50 with human recombinant ETB receptors (Homo sapiens, UniProt P24530) as the system for `COc1ccccc1Oc1c(NS(=O)(=O)c2ccc(C(C)(C)C)cc2)ncnc1OCCNS(=O)(=O)c1ccc(Br)cc1`
Result string: 995

Query string: Provide the documented IC50 with human recombinant ETB receptors (Homo sapiens, UniProt P24530) as the system for `COc1ccccc1Oc1c(NS(=O)(=O)c2ccc(C(C)C)cn2)nc(-c2cc(OC)c(OC)c(OC)c2)nc1OCCNS(=O)(=O)C(C)C`
Result string: 1050
